Biological target: human ACC2 (Homo sapiens (Human), UniProt O00763)
Sequence (O00763 129-2458): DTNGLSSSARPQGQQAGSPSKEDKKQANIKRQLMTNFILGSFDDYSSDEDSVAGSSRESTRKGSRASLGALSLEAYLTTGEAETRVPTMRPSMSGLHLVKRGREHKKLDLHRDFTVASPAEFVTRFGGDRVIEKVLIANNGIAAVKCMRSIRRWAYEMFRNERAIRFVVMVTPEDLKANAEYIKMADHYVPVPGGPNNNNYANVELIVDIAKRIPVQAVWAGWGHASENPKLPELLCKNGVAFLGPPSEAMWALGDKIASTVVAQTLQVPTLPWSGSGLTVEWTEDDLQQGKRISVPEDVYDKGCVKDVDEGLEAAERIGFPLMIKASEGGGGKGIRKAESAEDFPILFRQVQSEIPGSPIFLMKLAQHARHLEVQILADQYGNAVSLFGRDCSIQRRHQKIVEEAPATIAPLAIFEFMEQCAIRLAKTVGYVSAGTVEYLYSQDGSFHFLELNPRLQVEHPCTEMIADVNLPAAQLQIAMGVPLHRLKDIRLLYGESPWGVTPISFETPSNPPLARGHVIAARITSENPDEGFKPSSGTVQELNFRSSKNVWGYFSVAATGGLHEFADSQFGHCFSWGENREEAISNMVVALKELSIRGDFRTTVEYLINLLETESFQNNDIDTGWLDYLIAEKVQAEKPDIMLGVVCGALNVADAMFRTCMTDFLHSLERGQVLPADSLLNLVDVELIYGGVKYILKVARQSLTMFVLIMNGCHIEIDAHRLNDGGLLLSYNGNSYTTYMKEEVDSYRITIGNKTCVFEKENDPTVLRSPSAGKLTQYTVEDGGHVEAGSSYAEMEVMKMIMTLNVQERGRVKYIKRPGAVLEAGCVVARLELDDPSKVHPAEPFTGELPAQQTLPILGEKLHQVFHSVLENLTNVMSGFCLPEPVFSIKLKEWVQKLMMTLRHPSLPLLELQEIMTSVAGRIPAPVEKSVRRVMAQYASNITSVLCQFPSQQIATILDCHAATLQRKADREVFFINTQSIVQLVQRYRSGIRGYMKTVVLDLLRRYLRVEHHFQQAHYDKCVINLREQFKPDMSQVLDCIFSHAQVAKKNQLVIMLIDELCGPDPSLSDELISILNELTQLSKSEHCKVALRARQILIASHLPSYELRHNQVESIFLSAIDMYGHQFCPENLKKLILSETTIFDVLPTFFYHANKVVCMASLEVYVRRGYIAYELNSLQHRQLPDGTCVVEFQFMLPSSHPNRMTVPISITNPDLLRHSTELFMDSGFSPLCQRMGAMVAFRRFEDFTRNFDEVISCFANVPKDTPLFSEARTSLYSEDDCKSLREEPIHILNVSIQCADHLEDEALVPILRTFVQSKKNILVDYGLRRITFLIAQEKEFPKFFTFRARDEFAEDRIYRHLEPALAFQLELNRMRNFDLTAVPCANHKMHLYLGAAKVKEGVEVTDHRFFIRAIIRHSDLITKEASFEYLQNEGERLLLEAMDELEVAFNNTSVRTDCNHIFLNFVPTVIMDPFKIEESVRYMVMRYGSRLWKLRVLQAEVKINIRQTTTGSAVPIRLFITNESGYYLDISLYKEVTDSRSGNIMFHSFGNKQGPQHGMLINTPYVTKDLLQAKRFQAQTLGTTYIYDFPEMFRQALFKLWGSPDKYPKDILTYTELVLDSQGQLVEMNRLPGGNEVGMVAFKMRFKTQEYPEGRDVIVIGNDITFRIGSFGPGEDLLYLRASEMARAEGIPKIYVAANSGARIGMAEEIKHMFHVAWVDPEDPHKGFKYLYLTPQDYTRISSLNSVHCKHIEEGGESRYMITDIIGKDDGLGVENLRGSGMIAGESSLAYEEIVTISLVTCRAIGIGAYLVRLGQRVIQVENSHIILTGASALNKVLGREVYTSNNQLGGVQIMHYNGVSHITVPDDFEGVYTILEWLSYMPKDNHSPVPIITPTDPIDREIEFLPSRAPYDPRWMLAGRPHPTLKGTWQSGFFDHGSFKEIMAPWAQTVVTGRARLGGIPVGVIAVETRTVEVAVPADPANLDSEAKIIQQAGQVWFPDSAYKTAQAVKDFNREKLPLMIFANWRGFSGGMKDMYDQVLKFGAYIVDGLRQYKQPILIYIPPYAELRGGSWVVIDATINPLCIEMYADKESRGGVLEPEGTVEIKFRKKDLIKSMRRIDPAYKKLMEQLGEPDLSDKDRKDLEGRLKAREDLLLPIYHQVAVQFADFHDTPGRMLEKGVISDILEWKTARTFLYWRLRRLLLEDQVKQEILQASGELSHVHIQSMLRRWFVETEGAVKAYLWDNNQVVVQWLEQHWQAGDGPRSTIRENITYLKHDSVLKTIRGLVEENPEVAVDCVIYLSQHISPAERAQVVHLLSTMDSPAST
Criterion: IC50 strictly less than 100 nM. Met: Satisfied. Not met: Not satisfied.

# compound, category-label
records = [
    ("CCC(=O)Nc1nc(C)c(C(=O)N[C@@H](C)c2ccc(O[C@@H]3CCN(c4ccnc(NCC5CC5)c4Cl)C3)cc2)s1", "Satisfied"),
]

# strict comparison: is reported IC50 < 100 nM? input = COC(=O)N[C@@H](C)c1ccc(OC2CCN(c3cccc(C(F)(F)F)n3)C2)cc1 (some centres unmarked) Not satisfied

Problem: For the compound C[C@H](NC(=O)c1cnn(C)c1N)c1ccc(OC2CCN(c3ccnc(OCC(F)F)c3)C2)cc1 (some centres unmarked) , is IC50 under 100 nM? Not satisfied

Criterion: IC50 strictly below 100 nM. Is it met by `CC(=O)N[C@@H](C)c1ccc(O[C@@H]2CCN(c3ccnc(O[C@@H]4CCC[C@H]4O)c3)C2)cc1` ? Not satisfied

Consider the compound COc1c(N2CC[C@@H](Oc3ccc([C@H](C)NC(C)=O)cc3)C2)ccnc1OCC1CC1(F)F (some centres unmarked) . Is its IC50 strictly less than 100 nM? Satisfied

Regarding C[C@H](NC(=O)c1ccon1)c1ccc(OC2CCN(c3cccc(C(F)(F)F)n3)C2)cc1 (some centres unmarked) , kindly confirm whether its IC50 is beneath 100 nM. Not satisfied

Hi there! Is IC50 for CNC(=O)N[C@@H](C)c1ccc(OC2CCN(c3ccnc(OCC4CC4)c3)C2)cc1 (some centres unmarked) below 100 nM, do you know? Satisfied

Just wondering, is IC50 of C[C@H](NC(=O)c1ccno1)c1ccc(OC2CCN(c3ccnc(OCC4CC4)c3)C2)cc1 (some centres unmarked) below 100 nM? Not satisfied

Take the compound `CCCOc1nccc(N2CC[C@@H](Oc3ccc([C@H](C)NC(C)=O)cc3)C2)c1Cl` and say whether its IC50 is less than 100 nM. Satisfied

Record `CC(=O)N[C@@H](C)c1ccc(O[C@@H]2CCN(c3cccc(N(C)CC4CC4)n3)C2)cc1` : is its IC50 strictly below 100 nM? Not satisfied

Is 100 nM strictly greater than the compound's reported IC50? compound: C[C@H](NC(=O)CC#N)c1ccc(OC2CCN(c3ccc(OCC4CC4(F)F)cn3)C2)cc1 (some centres unmarked) Not satisfied

Given the entry `CC(=O)N[C@@H](C)c1ccc(O[C@@H]2CCN(c3cccc(N4CCOC(C)(C)C4)n3)C2)cc1` , would its reported IC50 be below 100 nM? Not satisfied
